Read-out: Urokinase-type plasminogen activator receptor (uPAR), PLAUR (gene 5329)
Protocol Text: BSK_CASM3C_uPAR: BioMAP Diversity Plus: CASM3C Assay for Urokinase-type plasminogen activator receptor (uPAR) Biomarker Activity (AID 2283054);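 further: cell-surface uPAR protein level quantified by ELISA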
Condition Set: primary human coronary artery smooth muscle cells; actives raise or lower the signal
The source made the active and inactive calls. How the source made its calls: active means hit-call score of the fitted dose curve at least 0.9, where 1 is the maximum; inactive means score below 0.9.
Classes used: TRUE (active), FALSE (inactive)

Molecule | Classification
O=c1c2ccccc2c(=O)c2c1cc(Cl)c1[nH]c3c([nH]c12)c(Cl)cc1c(=O)c2ccccc2c(=O)c13 | FALSE
CNC(=O)Oc1cc(C)c(SC)c(C)c1 | TRUE
O=P1(NCCCl)OCCCN1CCCl (stereo not drawn) | FALSE

---

Protocol Text: ATG_NF_kB_CIS: Attagene CIS-FACTORIAL HepG2 Assay for human Nuclear Factor Kappa B (NF-kB) (AID 2282991)
Condition Set: HepG2 Attagene cis-factorial NF-kB reporter mRNA; actives raise or lower the signal
Calls of active or inactive are those of the source. How the source made its calls: active means hit-call score of the fitted dose curve at least 0.9, where 1 is the maximum; inactive means score below 0.9.
Test Readout: AC50

Compound | Test Readout | Measured Value
CCC(C)c1cc([N+](=O)[O-])cc([N+](=O)[O-])c1OC(=O)C=C(C)C (stereo not given) | AC50 | inactive
N#CCCCl | AC50 | inactive
O=[N+]([O-])c1cc([N+](=O)[O-])c2ccccc2c1 | AC50 | inactive
COCC(=O)N(c1c(C)cccc1C)N1CCOC1=O | AC50 | inactive
CC1OC(C)OC(C)O1 (stereo not given) | AC50 | inactive
CC(=O)C=Cc1ccccc1 | AC50 | 163 µM (active)
C=C(Cl)CCl | AC50 | inactive
O=[N+]([O-])c1cc(C(F)(F)F)c(Cl)c([N+](=O)[O-])c1Cl | AC50 | 3.71 µM (active)
CC[N+](=O)[O-] | AC50 | inactive
c1cc(OCC2CO2)ccc1Cc1ccc(OCC2CO2)cc1 (stereo not given) | AC50 | 54.7 µM (active)
C=CC(=O)OCC(CC)CCCC (stereo not given) | AC50 | inactive
O=C(O)COc1ccccc1 | AC50 | inactive
NNc1ccccc1 | AC50 | inactive
Cl/C=C\CCl | AC50 | inactive
CCc1cc(C)cc(CC)c1-c1c(OC(=O)C(C)(C)C)n2n(c1=O)CCOCC2 | AC50 | inactive

---

Protocol Text: TOX21_p53_BLA_p3_viability: Viability Assessment in the Tox21 HCT-116 p53 Agonism Beta-lactamase Assay, Phase 3 (AID 2283593);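 further: cells exposed to compound for 16 h before reading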
Records with an inconclusive call do not appear. Activity calls are given as the source filed them. How the source made its calls: active means hit-call score of the fitted dose curve at least 0.9, where 1 is the maximum; inconclusive means response in the unintended direction; inactive means score below 0.9.
Outcome codes: class 1 = active, class 0 = inactive

Compound | Classification
CCCC(Cn1cncn1)c1ccc(Cl)cc1Cl (centres undefined) | class 0
O=C(Cl)CCl | class 0
[Hg+2].[I-].[I-] | class 1
C[C@@H]1CN(C2CCC(C#N)(c3ccc(F)cc3)CC2)CC[C@]1(C(=O)O)c1ccccc1 (some centres undefined) | class 0
BrCC(Br)(Br)Br | class 0
CC(=O)CCC(C)=O | class 0
CC(O)CN1CCN(CC(=O)[O-])CCN(CC(=O)[O-])CCN(CC(=O)[O-])CC1.[Gd+3] (centres undefined) | class 0
[Cl][Hg][c]1ccccc1 | class 1
Cc1ncc2n1-c1ccc(Cl)cc1C(c1ccccc1F)=NC2 | class 0
CCOP(=S)(OCC)Oc1cc(Cl)c(Br)cc1Cl | class 0
BrC(Br)C(Br)(Br)Br | class 0
CNC(C)CC1CCCCC1 (centres undefined) | class 0
CCC[N+](=O)[O-] | class 0
O=NN1CCNCC1 | class 0
